target: human CD33 N53A (human, UniProt P20138 18-364); assay: alanine scan, flow cytometry;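 also: HEK293-T cells transiently expressing single-residue alanine mutants of CD33 (alanine swapped to serine), antibody binding read by fluorescence in duplicate, background-subtracted, expressed relative to wild-type CD33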
Sequence (P20138 18-364 N53A limits assumed): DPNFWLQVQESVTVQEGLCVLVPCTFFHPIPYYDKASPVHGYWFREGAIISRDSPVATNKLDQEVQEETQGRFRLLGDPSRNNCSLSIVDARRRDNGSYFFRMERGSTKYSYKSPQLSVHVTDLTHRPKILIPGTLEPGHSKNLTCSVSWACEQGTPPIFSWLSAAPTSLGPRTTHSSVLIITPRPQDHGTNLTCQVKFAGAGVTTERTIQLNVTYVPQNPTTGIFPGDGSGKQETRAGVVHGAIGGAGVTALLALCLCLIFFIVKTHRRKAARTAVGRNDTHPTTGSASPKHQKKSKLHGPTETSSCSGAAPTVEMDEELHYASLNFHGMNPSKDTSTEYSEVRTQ
observable: Mean % WT Binding (% WT)
State just the number; it will be interpreted in % WT.

Req: Could you share which Mean % WT Binding value was measured for Refmab #2 (antibody, V domains shown, Full-length format is human IgG1 Fc silent (PG-LALA); The alanine scan used IgG or Fab) VH: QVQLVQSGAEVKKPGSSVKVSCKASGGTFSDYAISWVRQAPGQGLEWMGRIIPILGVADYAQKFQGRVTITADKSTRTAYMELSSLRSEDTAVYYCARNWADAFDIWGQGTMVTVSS VL: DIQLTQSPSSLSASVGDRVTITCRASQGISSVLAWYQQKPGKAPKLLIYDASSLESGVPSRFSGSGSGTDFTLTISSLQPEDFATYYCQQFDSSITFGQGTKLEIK ?
Resp: 96
